// values below are reported IC50
Test: Displacement of [125I]-CCK8 from CCK2 receptor in guinea pig cerebral cortex
Assay type: tissue-based, Cavia porcellus
readout: IC50 (µM)

In [3]: df
Out[3]:
                                   compound  endpointunit  testvalue
0  O=C(Nc1ccccc1C(=O)NC(Cc1ccccc1)C(=O)O)c1cc2ccccc2[nH]1 (racemic)            µM       16.4
1  O=C(NC(Cc1ccccc1)C(=O)O)c1ccccc1NC(=O)c1cccc2ccccc12 (racemic)            µM       6.57
2  O=C(Nc1ccccc1C(=O)NC(Cc1ccccc1)C(=O)O)c1cnc2ccccc2c1 (racemic)            µM       18.7
3  O=C(Nc1ccccc1C(=O)NC(Cc1ccccc1)C(=O)O)c1cc2cc(F)cc(F)c2[nH]1 (racemic)            µM        9.4
4  Cc1c(C(=O)Nc2ccccc2C(=O)NC(Cc2ccccc2)C(=O)O)[nH]c2ccccc12 (racemic)            µM        9.8
5  O=C(NC(Cc1ccccc1)C(=O)O)c1ccccc1NC(=O)C12CC3CC(CC(C3)C1)C2 (racemic)            µM       14.5
6  O=C(Nc1ccccc1C(=O)N[C@H](Cc1ccccc1)C(=O)O)c1cc2cc(F)ccc2[nH]1            µM       67.9
7  O=C(Nc1ccccc1C(=O)NC(Cc1ccccc1)C(=O)O)c1cc2cccc(C(F)(F)F)c2[nH]1 (racemic)            µM       11.2

###

Assay: Displacement of [125I]-CCK8 from CCK2 receptor in guinea pig cerebral cortex
Format: tissue-based, Cavia porcellus
pIC50: −log10 of the molar value.
readout: pIC50

In [3]: df
Out[3]:
                                    molecule  readout  testvalue
 0  CC1=C(C(=O)Nc2ccccc2C(=O)NC(Cc2ccccc2)C(=O)O)Cc2ccccc21 (racemic)    pIC50       4.86
 1  O=C(CCc1c[nH]c2ccccc12)Nc1ccccc1C(=O)NC(Cc1ccccc1)C(=O)O (racemic)    pIC50       4.87
 2  O=C(Nc1ccccc1C(=O)N[C@H](Cc1ccccc1)C(=O)O)c1cc2ccccc2[nH]1    pIC50       4.77
 3  O=C(Nc1ccccc1C(=O)N[C@@H](Cc1ccccc1)C(=O)O)c1cc2cccc(F)c2[nH]1    pIC50       5.05
 4  O=C(NC(Cc1ccccc1)C(=O)O)c1ccccc1NC(=O)c1c[nH]c2ccccc12 (racemic)    pIC50       4.52
 5  O=C(Nc1ccccc1C(=O)NC(Cc1ccccc1)C(=O)O)C1=CC2CCCC2N1 (racemic)    pIC50       4.22
 6  O=C(Nc1ccccc1C(=O)NC(Cc1ccccc1)C(=O)O)c1ccc2ccccc2n1 (racemic)    pIC50       4.84
 7  COc1ccc2[nH]c(C(=O)Nc3ccccc3C(=O)NC(Cc3ccccc3)C(=O)O)cc2c1 (racemic)    pIC50       4.77
 8  O=C(Nc1ccccc1C(=O)NC(Cc1ccccc1)C(=O)O)c1cc2cccc(F)c2[nH]1 (racemic)    pIC50       4.73
 9  O=C(Nc1ccccc1C(=O)NC(Cc1ccccc1)C(=O)O)c1cc2ccc(F)cc2[nH]1 (racemic)    pIC50       4.43
10  O=C(Nc1ccccc1C(=O)NC(Cc1ccccc1)C(=O)O)c1cc2c([nH]1)CCCC2 (racemic)    pIC50       4.15
11  O=C(NC(Cc1ccccc1)C(=O)O)c1ccccc1NS(=O)(=O)c1cccc2ccccc12 (racemic)    pIC50       5.23
12  O=C(NC(Cc1ccccc1)C(=O)O)c1ccccc1NC(=O)c1ccnc2ccccc12 (racemic)    pIC50       4.82
13  O=C(Nc1ccccc1C(=O)NC(Cc1ccccc1)C(=O)O)c1cc2ccccc2s1 (racemic)    pIC50       4.97
14  O=C(Nc1ccccc1C(=O)NC(Cc1ccccc1)C(=O)O)c1cc2c(F)cccc2[nH]1 (racemic)    pIC50       5.02
15  O=C(Nc1ccccc1C(=O)NC(Cc1ccccc1)C(=O)O)c1nc2ccccc2[nH]1 (racemic)    pIC50       4.99

###

Test: Displacement of [125I]-CCK8 from CCK2 receptor in guinea pig cerebral cortex
Format: tissue-based, Cavia porcellus
pIC50: −log10 of the molar value.
Please enter Met where pIC50 is greater than or equal to 5, and Not met where it is lower.

                                   compound  answerlabel
0  Cc1ccc2[nH]c(C(=O)Nc3ccccc3C(=O)NC(Cc3ccccc3)C(=O)O)cc2c1 (racemic)          Met
1  O=C(Nc1ccccc1C(=O)N[C@H](Cc1ccccc1)C(=O)O)c1cc2cccc(F)c2[nH]1      Not met
2  O=C(CC12CC3CC(CC(C3)C1)C2)Nc1ccccc1C(=O)NC(Cc1ccccc1)C(=O)O (racemic)      Not met

###

Organism: Cavia porcellus
Assay: Displacement of [125I]-CCK8 from CCK2 receptor in guinea pig cerebral cortex at 30 uM
Type: tissue-based
// values below are reported inhibition
readout: inhibition

>>> df
                                    molecule     readout  testvalue
 0  O=C(Nc1ccccc1C(=O)NC(Cc1ccccc1)C(=O)O)c1cccs1 (racemic)  inhibition        24%
 1  O=C(Nc1ccccc1C(=O)NC(Cc1ccccc1)C(=O)O)c1cc2cc(Cl)ccc2[nH]1 (racemic)  inhibition        31%
 2  O=C(/C=C/c1ccccc1[N+](=O)[O-])Nc1ccccc1C(=O)NC(Cc1ccccc1)C(=O)O (racemic)  inhibition        46%
 3  O=C(Nc1ccccc1C(=O)NC(Cc1ccccc1)C(=O)O)c1ccccn1 (racemic)  inhibition        31%
 4  O=C(Cc1ccccc1)Nc1ccccc1C(=O)NC(Cc1ccccc1)C(=O)O (racemic)  inhibition        36%
 5  O=C(CCc1ccccc1)Nc1ccccc1C(=O)NC(Cc1ccccc1)C(=O)O (racemic)  inhibition        37%
 6  O=C(Nc1ccccc1C(=O)NC(Cc1ccccc1)C(=O)O)c1ccncc1 (racemic)  inhibition        26%
 7  O=C(Nc1ccccc1C(=O)NC(Cc1ccccc1)C(=O)O)c1cc2cc([N+](=O)[O-])ccc2[nH]1 (racemic)  inhibition        31%
 8  O=C(NC(Cc1ccccc1)C(=O)O)c1ccccc1NC(=O)c1nccc2ccccc12 (racemic)  inhibition        53%
 9  O=C(Nc1ccccc1C(=O)NC(Cc1ccccc1)C(=O)O)c1ccco1 (racemic)  inhibition        27%
10  O=C(Nc1ccccc1C(=O)N[C@@H](Cc1ccccc1)C(=O)O)c1cc2cc(F)ccc2[nH]1  inhibition        20%
11  O=C(Cc1c[nH]c2ccccc12)Nc1ccccc1C(=O)NC(Cc1ccccc1)C(=O)O (racemic)  inhibition        23%
12  O=C(/C=C/c1ccccc1)Nc1ccccc1C(=O)NC(Cc1ccccc1)C(=O)O (racemic)  inhibition        49%
13  O=C(Nc1ccccc1C(=O)NC(Cc1ccccc1)C(=O)O)c1cnccn1 (racemic)  inhibition      < 20%
14  O=C(Nc1ccccc1C(=O)NC(Cc1ccccc1)C(=O)O)c1cccnc1 (racemic)  inhibition        44%
15  CC(C)(C)C(=O)Nc1ccccc1C(=O)NC(Cc1ccccc1)C(=O)O (racemic)  inhibition        24%
16  CC(C)(C)CC(=O)Nc1ccccc1C(=O)NC(Cc1ccccc1)C(=O)O (racemic)  inhibition        37%

###

Target: UniProtKB P30551
Sequence (P30551 whole entry): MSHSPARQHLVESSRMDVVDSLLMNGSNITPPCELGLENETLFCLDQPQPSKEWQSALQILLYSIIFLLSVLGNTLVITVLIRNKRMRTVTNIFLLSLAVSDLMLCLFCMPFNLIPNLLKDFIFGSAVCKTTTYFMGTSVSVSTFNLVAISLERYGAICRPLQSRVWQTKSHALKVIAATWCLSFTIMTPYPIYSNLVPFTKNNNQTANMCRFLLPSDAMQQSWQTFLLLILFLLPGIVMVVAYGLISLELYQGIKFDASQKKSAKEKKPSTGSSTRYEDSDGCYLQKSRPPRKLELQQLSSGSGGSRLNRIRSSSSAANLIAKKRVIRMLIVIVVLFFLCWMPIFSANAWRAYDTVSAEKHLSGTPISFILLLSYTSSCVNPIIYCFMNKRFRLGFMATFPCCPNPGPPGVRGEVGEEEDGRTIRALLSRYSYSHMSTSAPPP
Test: Displacement of [125I]-CCK8 from CCK1 receptor in rat pancreatic acinar cells 10 uM
// values below are reported inhibition
readout: inhibition

                                   compound  testvalue
0  O=C(NC(Cc1ccccc1)C(=O)O)c1ccccc1NS(=O)(=O)c1cccc2ccccc12 (racemic)      < 20%
1  CC(C)(C)CC(=O)Nc1ccccc1C(=O)NC(Cc1ccccc1)C(=O)O (racemic)      < 20%
2  O=C(NC(Cc1ccccc1)C(=O)O)c1ccccc1NC(=O)c1cccc2ccccc12 (racemic)      < 20%
3  O=C(NC(Cc1ccccc1)C(=O)O)c1ccccc1NC(=O)C12CC3CC(CC(C3)C1)C2 (racemic)      < 20%
4  O=C(Nc1ccccc1C(=O)NC(Cc1ccccc1)C(=O)O)c1ccc2ccccc2n1 (racemic)        48%
5  O=C(Cc1ccccc1)Nc1ccccc1C(=O)NC(Cc1ccccc1)C(=O)O (racemic)      < 20%
6  O=C(Nc1ccccc1C(=O)NC(Cc1ccccc1)C(=O)O)c1ccc2[nH]ccc2c1 (racemic)        41%
7  O=C(CCc1ccccc1)Nc1ccccc1C(=O)NC(Cc1ccccc1)C(=O)O (racemic)      < 20%
8  O=C(NC(Cc1ccccc1)C(=O)O)c1ccccc1NS(=O)(=O)c1ccc2ccccc2c1 (racemic)      < 20%

Source: ChEMBL document CHEMBL1154080
